- Test system: TC-71 (Ewing's Sarcoma)
- measurement-notes: Bliss excess, mean over the matrix (fraction); higher = more synergy;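 further: after 72 h of two-drug dosing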
Record form. Attribute: Bliss excess. Fill in for each entry.
Give bare numbers.

Would you please look over these solved cases?
COc1nnc2ccc(N3CCC(c4ccc(OCCN5CCN(C)C(=O)[C@H]5C)cc4)CC3)nn12 [AZD5153] + C=CCn1c(=O)c2cnc(Nc3ccc(N4CCN(C)CC4)cc3)nc2n1-c1cccc(C(C)(C)O)n1 [AZD1775] (first compound max 1 µM, partner max 1 µM) ... 0.0354
CCN(CCO)CCCOc1ccc2c(Nc3cc(CC(=O)Nc4cccc(F)c4)[nH]n3)ncnc2c1 [AZD2811] + C[C@@H]1COCCN1C2=NC(=NC(=C2)C3(CC3)[S@](=N)(=O)C)C4=C5C=CNC5=NC=C4 [AZD6738] (first compound max 1 µM, 7x7, partner max 10 µM) ... -0.0335
CCN(CCO)CCCOc1ccc2c(Nc3cc(CC(=O)Nc4cccc(F)c4)[nH]n3)ncnc2c1 [AZD2811] + C=CCn1c(=O)c2cnc(Nc3ccc(N4CCN(C)CC4)cc3)nc2n1-c1cccc(C(C)(C)O)n1 [AZD1775] (first compound max 1 µM, partner max 1 µM) ... 0.0744

Would you mind listing Bliss excess for each of the following compounds?
1. CC(=O)c1c(C)c2cnc(Nc3ccc(N4CCNCC4)cn3)nc2n(C2CCCC2)c1=O [Palbociclib] + Cc1c2c(nn1C)CSCc1cc(n(C)n1)CSc1cc(c3ccccc3c1)OCCCc1c(C(=O)O)n(C)c3c-2c(Cl)ccc13 [AZD5991] (first compound max 10 µM, 7x7, partner max 1 µM)
2. Cc1cc2ncnn2cc1Nc1ncc2c(n1)n(C1CCOCC1)c(=O)n2C [AZD7648] + C=CCn1c(=O)c2cnc(Nc3ccc(N4CCN(C)CC4)cc3)nc2n1-c1cccc(C(C)(C)O)n1 [AZD1775] (first compound max 10 µM, partner max 1 µM)
3. CC1(C)CCC(CN2CCN(c3ccc(C(=O)NS(=O)(=O)c4ccc(NCC5CCOCC5)c([N+](=O)[O-])c4)c(Oc4cnc5[nH]ccc5c4)c3)CC2)=C(c2ccc(Cl)cc2)C1 [Venetoclax] + COc1cc(Nc2ncc3c(n2)-c2ccc(Cl)cc2C(c2c(F)cccc2OC)=NC3)ccc1C(=O)O [Alisertib] (first compound max 1 µM, 7x7, partner max 10 µM)
4. COc1nnc2ccc(N3CCC(c4ccc(OCCN5CCN(C)C(=O)[C@H]5C)cc4)CC3)nn12 [AZD5153] + C[C@@H]1COCCN1C2=NC(=NC(=C2)C3(CC3)[S@](=N)(=O)C)C4=C5C=CNC5=NC=C4 [AZD6738] (first compound max 1 µM, 7x7, partner max 10 µM)

[-0.0182, 0.055, 0.0868, 0.0254]

* * *

Record form. Attribute: Bliss excess. Fill in for each entry.
- Tested on: DiFi (Colorectal Carcinoma)
- measurement-notes: Bliss excess, mean over the matrix (fraction); higher = more synergy
Give bare numbers.

Would you please look over these solved cases?
CC1(C)CCC(CN2CCN(c3ccc(C(=O)NS(=O)(=O)c4ccc(NCC5CCOCC5)c([N+](=O)[O-])c4)c(Oc4cnc5[nH]ccc5c4)c3)CC2)=C(c2ccc(Cl)cc2)C1 [Venetoclax] + C=CCn1c(=O)c2cnc(Nc3ccc(N4CCN(C)CC4)cc3)nc2n1-c1cccc(C(C)(C)O)n1 [AZD1775] (first compound max 1 µM, partner max 1 µM) ... -0.0222
Cc1cc2ncnn2cc1Nc1ncc2c(n1)n(C1CCOCC1)c(=O)n2C [AZD7648] + C[C@@H]1COCCN1C2=NC(=NC(=C2)C3(CC3)[S@](=N)(=O)C)C4=C5C=CNC5=NC=C4 [AZD6738] (first compound max 10 µM, 7x7, partner max 10 µM) ... 0.0639
CC1(C)CCC(CN2CCN(c3ccc(C(=O)NS(=O)(=O)c4ccc(NCC5CCOCC5)c([N+](=O)[O-])c4)c(Oc4cnc5[nH]ccc5c4)c3)CC2)=C(c2ccc(Cl)cc2)C1 [Venetoclax] + CN(C)CCCOc1ccc(-c2ccc3ncc4c(c3c2)n(C2CCOCC2)c(=O)n4C)cn1 [AZD0156] (first compound max 1 µM, 7x7, partner max 1 µM) ... 0.0216
CN(C)CCCOc1ccc(-c2ccc3ncc4c(c3c2)n(C2CCOCC2)c(=O)n4C)cn1 [AZD0156] + C=CCn1c(=O)c2cnc(Nc3ccc(N4CCN(C)CC4)cc3)nc2n1-c1cccc(C(C)(C)O)n1 [AZD1775] (first compound max 1 µM, partner max 1 µM) ... -0.0013
Cc1c2c(nn1C)CSCc1cc(n(C)n1)CSc1cc(c3ccccc3c1)OCCCc1c(C(=O)O)n(C)c3c-2c(Cl)ccc13 [AZD5991] + C[C@@H](Nc1cc(F)cc(F)c1)c1cc(C(=O)N(C)C)cc2c(=O)cc(N3CCOCC3)oc12 [AZD8186] (first compound max 1 µM, 7x7, partner max 3 µM) ... 0.0406

Would you mind listing Bliss excess for each of the following molecules?
1. Cn1cnc2c(F)c(Nc3ccc(Br)cc3Cl)c(C(=O)NOCCO)cc21 [Selumetinib] + CCN(CCO)CCCOc1ccc2c(Nc3cc(CC(=O)Nc4cccc(F)c4)[nH]n3)ncnc2c1 [AZD2811] (first compound max 10 µM, 7x7, partner max 1 µM)
2. CN(C)CCCOc1ccc(-c2ccc3ncc4c(c3c2)n(C2CCOCC2)c(=O)n4C)cn1 [AZD0156] + CCN(CCO)CCCOc1ccc2c(Nc3cc(CC(=O)Nc4cccc(F)c4)[nH]n3)ncnc2c1 [AZD2811] (first compound max 1 µM, 7x7, partner max 1 µM)

0.0371
-0.0363

Data origin, for the record: the supplement of paper PMC11061612
